// provenance: PubChem BioAssay (Tox21)

measured_target: 5-hydroxytryptamine receptor 2A (Homo sapiens)
method: 5-hydroxytryptamine receptor 2A (HTR2A) small molecule antagonists, cell-based qHTS assay (AID 1963586); further: nearly all actives have a fitted effect of over 45% in size
condition_set: HTR2A-CHO cells, DOI-induced calcium flux, fluorescence; series mostly up to 61.5 µM
Inconclusive results are not listed. Active and inactive are the calls of the source. The call rests on the fitted dose curve.
Outcomes: T (active), F (inactive)

# molecule, label_value
measured = [
    ("CCC(=O)C(CCN(C)C)(c1ccccc1)c1ccccc1", "T"),
    ("O=S1OC[C@@H]2[C@H](CO1)[C@]1(Cl)C(Cl)=C(Cl)[C@@]2(Cl)C1(Cl)Cl (stereo not given in full)", "F"),
    ("[C-]1=CC=CC1.[Cl][Zr+2][Cl].c1cc[cH-]c1", "F"),
    ("CCn1cc[n+](C)c1 (tested in a mixture with another compound)", "F"),
    ("N#CC(Br)(Br)C(N)=O", "F"),
]
